- target.or.test.system: huCTLA4 (Homo sapiens, UniProt P16410)
- Sequence (P16410 36-223): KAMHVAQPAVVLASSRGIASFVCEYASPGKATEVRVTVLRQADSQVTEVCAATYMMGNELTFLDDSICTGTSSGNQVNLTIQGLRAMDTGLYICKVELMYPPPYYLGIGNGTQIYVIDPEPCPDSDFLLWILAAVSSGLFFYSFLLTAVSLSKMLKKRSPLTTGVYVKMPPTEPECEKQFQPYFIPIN
- assay.protocol: Flow binding to CHO cells stably expressing CTLA4
- Set-up: huCTLA4 and huPD-L1, full-length mammalian surface expression constructs were generated; expressed in transfected cells; host or cells: CHO cells, lentiviral transduction, sorted to >98% purity
- condition.info: Table E11; 33.3 nM; listed as WT CD80 ECD-Fc = 1.0
Would you mind telling me the reported CTLA4 Fold change to WT CD80 of each entry?
Format: numeric value only, no unit, no commentary.

## Input Identify CTLA4 Fold change to WT CD80 associated with the molecule E35D/M43I/M47L/V68M (protein, UniProt P33681 35-288, looked up, variant E35D M43I M47L V68M) T-lymphocyte activation …: VIHVTKEVKEVATLSCGHNVSVEELAQTRIYWQKDKKMVLTMISGDLNIWPEYKNRTIFDITNNLSIMILALRPSDEGTYECVVLKYEKDAFKREHLAEVTLSVKADFPTPSISDFEIPTSNIRRIICSTSGGFPEPHLSWLENGEELNAINTTVSQDPETELYAVSSKLDFNMTTNHSFMCLIKYGHLRVNQTFNWNTTKQEHFPDNLLPSWAITLISVNGIFVICCLTYCFAPRCRERRRNERLRRESVRPV
## Output 9.3

## Input Identify CTLA4 Fold change to WT CD80 associated with the molecule E35D/M47L/Y53F/V68M/A71G/K93R/E95V (protein, UniProt P33681 35-288, looked up, variant E35D M47L Y53F V68M A71G K93R E95V) T-lymphocyte activation …: VIHVTKEVKEVATLSCGHNVSVEELAQTRIYWQKDKKMVLTMMSGDLNIWPEFKNRTIFDITNNLSIMILGLRPSDEGTYECVVLKYEKDAFRRVHLAEVTLSVKADFPTPSISDFEIPTSNIRRIICSTSGGFPEPHLSWLENGEELNAINTTVSQDPETELYAVSSKLDFNMTTNHSFMCLIKYGHLRVNQTFNWNTTKQEHFPDNLLPSWAITLISVNGIFVICCLTYCFAPRCRERRRNERLRRESVRPV
## Output 9.1

## Input Identify CTLA4 Fold change to WT CD80 associated with the molecule E35D/M47V/N48KN68M/L85M (protein) VIHVTKEVKEVATLSCGHNVSVEELAQTRIYWQKDKKMVLTMMSGDVKIWPEYKNRTIFDITNNLSIMILALRPSDEGTYECVVMKYEKDAFKREHLAEVTLSVKAD
## Output 8.9
